# Tested on: A498 renal
# assay.method.text: NCI-60 one-dose screen, 48 h
# experimental.context: 10 µM unless noted
The panel holds about 83,000 compounds, 20% with a hit somewhere; the sample as a whole holds those more often. Active and inactive are the calls of the source. How the source made its calls: active means growth percent below 10; inactive means the rest.
Give one outcome, nothing more. List: active, inactive

compound	class.assignment
O=C1c2cc3c(cc2-c2c1c1ccc(Cl)cc1c(=O)n2CCCNCCO)OCO3	active
Cc1ccc(-c2c3c(N)nc(-c4ccncc4)nc3nc3c2c(C)nn3-c2ccccc2)cc1	inactive
CCn1cnc(C[C@H](NC(=O)[C@H](CCCCNC(=O)Nc2cc(C(F)(F)F)cc(C(F)(F)F)c2)NC(=O)Nc2cc(C(F)(F)F)cc(C(F)(F)F)c2)C(=O)OC)c1	active
CCNCCCn1c2c(c3ccc(F)cc3c1=O)C(=O)c1cc(OC)cnc1-2	active
COC(=O)c1cc2oc(/C=N\NC(=O)c3cc4oc(C)c(C)c4[nH]3)cc2[nH]1	inactive
O=C(Nc1ccccc1S)c1ccccc1	inactive

Outcome logged for Clc1ccc(C2c3ccccc3-c3nccn32)c(Cl)c1 (stereo unspecified) in this assay: inactive

Input "O=c1sc2ncnc3ncn1c32" inactive

Input "COc1ccc(-c2cc(-c3cccnc3)nc(S(=O)(=O)CC(=O)Nc3ccc(C)cc3)c2C#N)cc1OC" inactive

Input "C[C@@H]1[C@H]2[C@H](C=C3[C@@H]4CC[C@H]5Cc6nc7c(nc6C[C@]5(C)[C@H]4C[C@@H](O)[C@@]32C)C[C@@H]2CC[C@H]3C4=C[C@@H]5O[C@@]6(CC[C@](C)(CO)O6)[C@@H](C)[C@@]5(O)[C@@]4(C)[C@H](O)C[C@@H]3[C@@]2(C)C7)O[C@]12CCC(C)(C)O2" active

Input "CCC(=O)Nc1cc2c(cc1Cl)-c1ccccc1C2" inactive

----------
# System: SF-295 CNS
# assay.method.text: NCI-60 one-dose screen, 48 h
# experimental.context: 10 µM unless noted
The panel holds about 83,000 compounds, 20% with a hit somewhere; the sample as a whole holds those more often. Activity calls are given as the source filed them. Rule for the calls: active = growth percent below 10; inactive = the rest.
Give one outcome, nothing more. List: active, inactive

> print(dat)
                                   compound  class.assignment
1  COc1cc(/C=C/C(=O)c2c(C)n([O-])c3ccccc3[n+]2=O)cc(OC)c1OC          inactive
2         COc1cccc(N2CCN(c3cccc(C)n3)CC2)c1          inactive
3            O=C1Nc2ccc(Cl)cc2/C1=C/c1cccs1          inactive

Outcome logged for "COCCCNS(=O)(=O)c1ncnc2nc[nH]c12" in this assay: inactive

Input CC(NNC(=S)N1CCCCCC1)c1ccc2ccccc2n1 (stereo not given) active

Input "c1ccc(COc2ccc(Nc3ncnc4c3cnn4-c3ccccc3)cc2)cc1" inactive

Input "CCOC(=O)Nc1cc(-c2ccc(C)c(NS(C)(=O)=O)c2)nn2c(C)nnc12" active

Input "CCN(Cc1cccc(S(=O)(=O)[O-])c1)c1ccc(C(=C2C=CC(=[N+](CC)Cc3cccc(S(=O)(=O)O)c3)C=C2)c2ccccc2S(=O)(=O)O)cc1" inactive

Input "O=Cc1ccccc1C(=O)O" inactive

Input "COc1cc(/C(Cl)=C/C=C/C(=O)c2c(C)[n+]([O-])c3ccc(Cl)cc3[n+]2[O-])cc(OC)c1OC" inactive

Input "O=C1/C=C/[C@@H](O)[C@@H]2C[C@@H](O)C[C@H]2/C=C/CCC[C@H](CO)O1" inactive

Input "O=C(NCCNC(=O)Oc1cccc2ccccc12)Oc1cccc2ccccc12" inactive

Input "Cn1cnc([N+](=O)[O-])c1Sc1nc(N)nc2nc[nH]c12" active

Input "CCN(CC)c1ccc(N=C2C=CC(=O)C=C2NC(C)=O)cc1" inactive

Input "Nc1ccccc1C#Cc1ccccc1C#Cc1ccc(OCCCCCCOc2ccc(C#Cc3ccccc3C#Cc3ccccc3N)cc2)cc1" inactive

Input "O=C1C(=O)/C(=C/c2ccccc2)CCCCCC/C1=C/c1ccccc1" inactive

Input NS(=O)(=O)c1ccc(N2CC(c3nc4ccccc4[nH]3)CC2=O)cc1 (stereo not given) inactive

Input CCN1CC2=C(Nc3nc(SC)[nH]c(=O)c3C2c2cc(OC)c(OC)c(OC)c2)/C(=C/c2cc(OC)c(OC)c(OC)c2)C1 (stereo not given) inactive

Input "COc1ccc(-c2cnc(SCC(=O)Nc3ccc(-c4nc5ccccc5s4)cc3)n2-c2ccc(OC)cc2)cc1" inactive

Input O=CN1N=C(c2ccc(Cl)cc2)CC1c1cccc(Nc2ccnc3cc(Cl)ccc23)c1 (stereo not given) active

Input "COP(=O)(OC)C(c1ccc(O)cc1)(c1ccc(O)cc1)c1ccc(O)cc1" inactive

Input O=C1CSC(c2ccccc2O)N1c1nnc(Cn2ccnc2)o1 (stereo not given) inactive

Input "CCSc1ncc(Br)c(Sc2nc(N)nc3nc[nH]c23)n1" inactive

Input "CCOc1nc(-c2ccco2)n2nc(-c3ccco3)cc2n1" inactive

Input "O=Cc1ncc(-c2ccc(C(F)(F)F)cc2)c(NC2CCCCCC2)n1" active
